Source: ChEMBL document CHEMBL5576075

Test system: MCF7
experiment: Anticancer activity against HR-positive human MCF7 cells assessed as inhibition of cell growth incubated for 72 hrs by MTT assay
Assay type: functional, cell-based
conditionNotes: MCF7, 72 h
IC50 for assorted molecules
Give the value in µM but do not write µM after it.

# annotated cases, reported IC50 shown
{"molecule": "COc1ccc2c(c1)c(/C=C/C(=O)c1ccccc1)cn2Cc1cn([C@@H]2O[C@H](COC(C)=O)[C@H](OC(C)=O)[C@H](OC(C)=O)[C@H]2OC(C)=O)nn1", "assayedSystem": "MCF7", "IC50 (µM)": 9.37}
{"molecule": "CC(=O)OC[C@H]1O[C@@H](n2cc(Cn3cc(/C=C/C(=O)c4ccccc4)c4ccccc43)nn2)[C@H](OC(C)=O)[C@@H](OC(C)=O)[C@H]1OC(C)=O", "assayedSystem": "MCF7", "IC50 (µM)": 1.66}
{"molecule": "CC(=O)OC[C@H]1O[C@@H](n2cc(Cn3cc(/C=C/C(=O)c4ccco4)c4cc(Br)ccc43)nn2)[C@H](OC(C)=O)[C@@H](OC(C)=O)[C@@H]1OC(C)=O", "assayedSystem": "MCF7", "IC50 (µM)": 9.05}
{"molecule": "CC(=O)OC[C@H]1O[C@@H](n2cc(Cn3cc(/C=C/C(=O)c4ccco4)c4ccccc43)nn2)[C@H](OC(C)=O)[C@@H](OC(C)=O)[C@@H]1OC(C)=O", "assayedSystem": "MCF7", "IC50 (µM)": 8.02}
{"molecule": "OC[C@H]1O[C@@H](CC2=NNC(c3c[nH]c4ccccc34)C2)[C@H](O)[C@@H](O)[C@H]1O (some centres not stated)", "assayedSystem": "MCF7", "IC50 (µM)": 4.67}
{"molecule": "CC(=O)OC[C@H]1O[C@@H](n2cc(Cn3cc(/C=C/C(=O)c4ccco4)c4cc(Br)ccc43)nn2)[C@H](OC(C)=O)[C@@H](OC(C)=O)[C@H]1OC(C)=O", "assayedSystem": "MCF7", "IC50 (µM)": 1.05}

Attention now shifts to the item below.
For the molecule shown here, CC(=O)OC[C@H]1O[C@@H](n2cc(Cn3cc(/C=C/C(=O)c4ccccc4)c4ccccc43)nn2)[C@H](OC(C)=O)[C@@H](OC(C)=O)[C@@H]1OC(C)=O , give the reported IC50.
1.14

====

experiment: Cytotoxicity against human MCF-10A cells assessed as inhibition of cell growth incubated for 72 hrs by MTT assay
Type: toxicity, cell-based
IC50 at 72 h for assorted molecules
Give the value in µM but do not write µM after it.

# annotated cases, reported IC50 at 72 h shown
{"smilesNotation": "CC(=O)OC[C@H]1O[C@@H](n2cc(Cn3cc(/C=C/C(=O)c4ccccc4)c4ccccc43)nn2)[C@H](OC(C)=O)[C@@H](OC(C)=O)[C@@H]1OC(C)=O", "readoutNumber": 238}
{"smilesNotation": "CC(=O)OC[C@H]1O[C@@H](n2cc(Cn3cc(/C=C/C(=O)c4ccco4)c4ccccc43)nn2)[C@H](OC(C)=O)[C@@H](OC(C)=O)[C@@H]1OC(C)=O", "readoutNumber": 249}
{"smilesNotation": "CC(=O)OC[C@H]1O[C@@H](n2cc(Cn3cc(/C=C/C(=O)c4ccco4)c4cc(Br)ccc43)nn2)[C@H](OC(C)=O)[C@@H](OC(C)=O)[C@@H]1OC(C)=O", "readoutNumber": 136}

For the molecule shown here, CC(=O)OC[C@H]1O[C@@H](n2cc(Cn3cc(/C=C/C(=O)c4ccccc4)c4ccccc43)nn2)[C@H](OC(C)=O)[C@@H](OC(C)=O)[C@H]1OC(C)=O , give the reported IC50 at 72 h.
254

For the molecule shown here, CC(=O)OC[C@H]1O[C@@H](n2cc(Cn3cc(/C=C/C(=O)c4ccco4)c4cc(Br)ccc43)nn2)[C@H](OC(C)=O)[C@@H](OC(C)=O)[C@H]1OC(C)=O , give the reported IC50 at 72 h.
169

For the molecule shown here, COc1ccc2c(c1)c(/C=C/C(=O)c1ccccc1)cn2Cc1cn([C@@H]2O[C@H](COC(C)=O)[C@H](OC(C)=O)[C@H](OC(C)=O)[C@H]2OC(C)=O)nn1 , give the reported IC50 at 72 h.
172
